Origin of measurements: paper PMC5291822

subject.of.test: human GVIA iPLA2 (Homo sapiens, UniProt O60733)
protocol: mixed micelle modified Dole assay, GVIA iPLA2
Format: biochemical
condition.context: mole fraction of inhibitor in total substrate interface giving 50% inhibition
measured.quantity: XI(50) GVIA iPLA2 (mole fraction)
// note: answer is a bare numeric in mole fraction

compound CCCC[C@H](NC(=O)C(=O)CCCCc1ccc(OC)cc1)C(=O)NCCCC(=O)OC(C)(C)C [compound 12e] , XI(50) GVIA iPLA2 observed: 0.007

compound CCCC[C@H](NC(=O)C(=O)CCCCc1ccc(OC)cc1)C(=O)NCC(=O)OCc1ccccc1 [compound 31a] , XI(50) GVIA iPLA2 observed: 0.026

compound COc1ccc(CCCCC(=O)C(=O)N[C@@H](CC(C)C)C(=O)NCC(=O)OC(C)(C)C)cc1 [compound 22a] , XI(50) GVIA iPLA2 observed: 0.024

compound CCCC[C@H](NC(=O)C(=O)CCCCc1ccc(OC)cc1)C(=O)NCC(=O)OC(C)(C)C [compound 12c] , XI(50) GVIA iPLA2 observed: 0.012

###

Assignment: determine reported pIC50 for the given compounds.
subject.of.test: UniProt O60733
Sequence (O60733 1-806): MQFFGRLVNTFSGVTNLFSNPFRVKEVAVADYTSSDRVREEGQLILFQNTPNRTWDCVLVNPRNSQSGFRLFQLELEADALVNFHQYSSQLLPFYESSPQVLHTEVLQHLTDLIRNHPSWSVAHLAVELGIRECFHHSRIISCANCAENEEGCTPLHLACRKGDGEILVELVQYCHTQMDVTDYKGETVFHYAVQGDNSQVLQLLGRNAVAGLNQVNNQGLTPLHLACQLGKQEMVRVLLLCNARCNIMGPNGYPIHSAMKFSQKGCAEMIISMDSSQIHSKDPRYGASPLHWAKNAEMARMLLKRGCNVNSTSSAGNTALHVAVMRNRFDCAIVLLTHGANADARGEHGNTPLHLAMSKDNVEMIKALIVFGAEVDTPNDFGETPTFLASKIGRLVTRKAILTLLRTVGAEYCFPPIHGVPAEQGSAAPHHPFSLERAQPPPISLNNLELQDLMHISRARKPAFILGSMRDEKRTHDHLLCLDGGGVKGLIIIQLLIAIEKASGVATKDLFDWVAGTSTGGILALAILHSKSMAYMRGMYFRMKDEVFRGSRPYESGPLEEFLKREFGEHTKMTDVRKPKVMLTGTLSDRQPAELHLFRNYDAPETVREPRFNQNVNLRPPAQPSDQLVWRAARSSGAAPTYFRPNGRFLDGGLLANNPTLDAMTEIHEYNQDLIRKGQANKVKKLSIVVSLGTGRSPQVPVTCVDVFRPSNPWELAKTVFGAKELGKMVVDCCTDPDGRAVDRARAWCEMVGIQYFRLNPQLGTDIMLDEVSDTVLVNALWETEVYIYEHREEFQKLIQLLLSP
protocol: mixed micelle modified Dole assay, GVIA iPLA2
Type: biochemical
Reminder that pIC50 means the negative base-10 logarithm of the concentration expressed in mol/L.

compound CCCC[C@H](NC(=O)C(=O)CCCCc1ccc(OC)cc1)C(=O)NCC(=O)OCc1ccccc1 [compound 31a] , pIC50 observed: 4.85

compound CCCC[C@H](NC(=O)C(=O)CCCCc1ccc(OC)cc1)C(=O)NCCCC(=O)OC(C)(C)C [compound 12e] , pIC50 observed: 5.42

compound CCCC[C@H](NC(=O)C(=O)CCCCc1ccc(OC)cc1)C(=O)NCC(=O)OC(C)(C)C [compound 12c] , pIC50 observed: 5.18

compound COc1ccc(CCCCC(=O)C(=O)N[C@@H](CC(C)C)C(=O)NCC(=O)OC(C)(C)C)cc1 [compound 22a] , pIC50 observed: 4.89
